- Test system: H1373 cell line (K-RAS G12C)
- protocol: cells
- Format: cell-based
- testSettings: Homo sapiens, NCI-H1373, 96 h; 3D culture, CellTiter-Glo 3D, read on day 4; read-out: H1373 (K-RAS G12C) IC50
assayMetric: IC50 (nM)

[2H]C([2H])([2H])c1cccc2cccc(N3CCc4c(nc(OC[C@@H]5CCCN5C([2H])([2H])[2H])nc4N4CCN(C(=O)C=C)[C@@H](CC#N)C4)C3)c12: 0.32

a: [2H]C([2H])([2H])N1CCC[C@H]1COc1nc2c(c(N3CCN(C(=O)C=C)[C@@H](CC#N)C3)n1)CCN(c1cccc3cccc(C)c13)C2
b: [2H]C([2H])([2H])c1cccc2cccc(N3CCc4c(nc(OC[C@@H]5CCCN5C)nc4N4CCN(C(=O)C=C)[C@@H](CC#N)C4)C3)c12
// query For the pair a and b , which member has the lower IC50 number? Which one? Tell me its label.
// result a
